study_system: rat M1 Y106A receptor (Rattus norvegicus, UniProt P08482, Y106A)
Construct: expressed in transfected cells
Sequence (P08482 1-460 Y106A): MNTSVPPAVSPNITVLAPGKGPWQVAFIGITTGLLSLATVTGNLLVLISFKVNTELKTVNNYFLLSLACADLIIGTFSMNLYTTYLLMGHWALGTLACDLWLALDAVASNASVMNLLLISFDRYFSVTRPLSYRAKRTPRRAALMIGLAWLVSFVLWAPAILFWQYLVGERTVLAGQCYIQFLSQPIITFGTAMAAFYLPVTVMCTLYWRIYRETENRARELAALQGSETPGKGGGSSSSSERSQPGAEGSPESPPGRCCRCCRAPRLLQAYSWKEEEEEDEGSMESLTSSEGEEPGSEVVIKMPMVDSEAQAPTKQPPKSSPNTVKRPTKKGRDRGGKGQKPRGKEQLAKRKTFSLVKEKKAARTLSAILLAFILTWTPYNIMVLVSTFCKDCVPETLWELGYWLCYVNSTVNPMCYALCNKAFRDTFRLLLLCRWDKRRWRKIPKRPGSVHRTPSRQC
test_protocol: R-SAT functional assay, Y106A mutant
Assay type: cell-based
assay_setup: Table 3; Y106A
measurement_type: EC50 (µM)
// note: answer is a bare numeric in µM

> print(dat)
                                   molecule  measured.number
1  Clc1ccc2c(c1)N=C(N1CCNCC1)c1ccccc1N2 [NDMC]              0.1

Q: Provide EC50, tested on rat M1 Y106A receptor (Rattus norvegicus, UniProt P08482, Y106A), for CCCCC1CCN(CCCN2C(=O)COc3cc(F)ccc32)CC1 [AC-260584] .
Ans: 0.0794

====

study_system: rat M1 wild-type receptors (Rattus norvegicus)
Construct: expressed in transfected cells
test_protocol: Phosphatidyl inositol hydrolysis assay, wild-type
Assay type: cell-based
assay_setup: Table 6; PI hydrolysis; M1 WT
measurement_type: EC50 (nM)
// note: answer is a bare numeric in nM

Q: Name the recorded EC50 of the item Clc1ccc2c(c1)N=C(N1CCNCC1)c1ccccc1N2 in your answer.
Ans: 100

====

study_system: rat M1 Y381A receptor (Rattus norvegicus, UniProt P08482, Y381A)
Construct: expressed in transfected cells; host or cells: NIH-3T3
test_protocol: R-SAT functional assay, Y381A mutant
Type: cell-based
measurement_type: EC50 (µM)
// note: answer is a bare numeric in µM

Q: Provide EC50, tested on rat M1 Y381A receptor (Rattus norvegicus, UniProt P08482, Y381A), for O=C1CCCN1CC#CCN1CCCC1 [Oxotremorine] .
Ans: 3.98

====

study_system: rat M1 Y381A receptor (Rattus norvegicus, UniProt P08482, Y381A)
Construct: expressed in transfected cells; host or cells: NIH-3T3
Sequence (P08482 1-460 Y381A): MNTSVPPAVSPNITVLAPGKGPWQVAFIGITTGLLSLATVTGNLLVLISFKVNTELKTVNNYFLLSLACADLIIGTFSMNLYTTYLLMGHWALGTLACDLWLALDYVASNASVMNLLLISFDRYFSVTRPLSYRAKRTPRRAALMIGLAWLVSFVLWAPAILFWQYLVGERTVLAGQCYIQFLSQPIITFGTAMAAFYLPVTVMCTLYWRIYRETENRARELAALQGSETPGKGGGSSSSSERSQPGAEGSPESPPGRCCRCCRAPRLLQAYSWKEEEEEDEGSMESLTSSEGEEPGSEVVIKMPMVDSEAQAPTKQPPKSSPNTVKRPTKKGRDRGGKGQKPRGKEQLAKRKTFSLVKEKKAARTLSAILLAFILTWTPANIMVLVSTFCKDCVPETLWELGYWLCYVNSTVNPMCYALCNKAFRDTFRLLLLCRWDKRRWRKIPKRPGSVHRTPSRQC
test_protocol: R-SAT functional assay, Y381A mutant
Format: cell-based
assay_setup: Table 10; M1 Y381A; NA = non-active; read-out: pEC50 (converted)
measurement_type: EC50 (nM)
// note: answer is a bare numeric in nM

> print(dat)
                      smiles.representation                              study.system  measured.number
1    CCCCC1CCN(CCCN2C(=O)COc3cc(F)ccc32)CC1  rat M1 Y381A receptor (Rattus norvegicus, UniProt P08482, Y381A)             63.1
2  CN1CCN(C2=Nc3ccccc3Oc3ccc(Cl)cc32)CC1.O=C(O)CCC(=O)O  rat M1 Y381A receptor (Rattus norvegicus, UniProt P08482, Y381A)             1260
3           CCCCC1CCN(CCCC(=O)c2ccccc2C)CC1  rat M1 Y381A receptor (Rattus norvegicus, UniProt P08482, Y381A)             3160

Please turn your attention to the following entry.
Q: Name the recorded EC50 of the item Clc1ccc2c(c1)N=C(N1CCNCC1)c1ccccc1N2 in your answer.
Ans: 158

====

study_system: rat M1 wild-type receptors (Rattus norvegicus, UniProt P08482)
Construct: expressed in transfected cells
Sequence (P08482 1-460): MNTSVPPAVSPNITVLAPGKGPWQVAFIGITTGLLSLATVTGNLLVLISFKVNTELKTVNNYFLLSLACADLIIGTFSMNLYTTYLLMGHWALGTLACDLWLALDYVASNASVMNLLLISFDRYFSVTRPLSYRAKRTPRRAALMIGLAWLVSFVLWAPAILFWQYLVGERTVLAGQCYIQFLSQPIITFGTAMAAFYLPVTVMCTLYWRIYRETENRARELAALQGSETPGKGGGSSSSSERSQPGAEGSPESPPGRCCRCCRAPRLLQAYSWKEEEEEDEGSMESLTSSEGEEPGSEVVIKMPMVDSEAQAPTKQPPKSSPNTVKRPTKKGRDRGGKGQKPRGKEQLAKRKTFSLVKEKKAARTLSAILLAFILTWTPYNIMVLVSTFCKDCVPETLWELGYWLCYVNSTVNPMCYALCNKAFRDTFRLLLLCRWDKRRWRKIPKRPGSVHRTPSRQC
test_protocol: Phosphatidyl inositol hydrolysis assay, wild-type
Format: cell-based
assay_setup: Table 5; PI hydrolysis; wild-type
measurement_type: EC50 (nM)
// note: answer is a bare numeric in nM

Q: Name the recorded EC50 of the item CCCCC1CCN(CCCN2C(=O)COc3cc(F)ccc32)CC1 [AC-260584] in your answer.
Ans: 50.1

====

Listed next: entries and their corresponding 300 nM Avg.
study_system: M1 W101A receptor (Rattus norvegicus, UniProt P08482, W101A)
Construct: expressed in transfected cells
Sequence (P08482 1-460 W101A): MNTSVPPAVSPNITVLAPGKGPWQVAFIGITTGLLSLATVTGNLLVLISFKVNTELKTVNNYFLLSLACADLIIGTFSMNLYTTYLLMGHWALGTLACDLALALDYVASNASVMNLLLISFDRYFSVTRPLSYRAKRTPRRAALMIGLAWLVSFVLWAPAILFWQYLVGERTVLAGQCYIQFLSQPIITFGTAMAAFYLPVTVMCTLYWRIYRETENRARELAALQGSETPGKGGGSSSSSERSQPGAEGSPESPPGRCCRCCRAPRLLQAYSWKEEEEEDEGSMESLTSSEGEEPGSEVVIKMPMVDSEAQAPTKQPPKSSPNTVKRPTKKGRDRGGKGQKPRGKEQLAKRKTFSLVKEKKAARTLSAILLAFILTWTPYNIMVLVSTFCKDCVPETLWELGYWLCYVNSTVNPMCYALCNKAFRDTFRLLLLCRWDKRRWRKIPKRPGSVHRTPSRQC
test_protocol: R-SAT HTS on M1 W101A receptor
Assay type: cell-based
assay_setup: compound at 300 nM, triplicate retest, activity over basal cellular response
Note: the reply should be a number with no unit written.

Recorded results for 2 compounds are shown here.
> print(dat)
                      smiles.representation  measured.number
1  CCCCC1CCN(CCCN2C(=O)COc3ccc(C(C)=O)cc32)CC1             2.86
2  CCCOC1CCN(C[C@@H](C)CN2C(=O)COc3ccccc32)CC1             4.15

Q: Name the recorded 300 nM Avg of the item CCCCC1CCN(C[C@@H](C)CN2C(=O)COc3ccccc32)CC1.O=C(O)C(=O)O in your answer.
Ans: 4.16

Q: Name the recorded 300 nM Avg of the item CCCCC1CCN(CCCn2c(=O)oc3c(Cl)cc(Cl)c(Cl)c32)CC1.O=C(O)C(=O)O in your answer.
Ans: 2.36

Q: Name the recorded 300 nM Avg of the item CCCOC1CCN(C[C@@H](C)CN2C(=O)CCc3ccccc32)CC1.O=C(O)C(=O)O in your answer.
Ans: 4.11

====

study_system: rat M1 Y381A receptor (Rattus norvegicus, UniProt P08482, Y381A)
Construct: expressed in transfected cells; host or cells: NIH-3T3
test_protocol: R-SAT functional assay, Y381A mutant
Type: cell-based
assay_setup: Table 10; M1 Y381A; maximum response relative to AC-42
So basically: is % Eff under 200%? Then Fulfilled. Not under? Then Not fulfilled.

Example entries begin here.
> print(dat)
                      smiles.representation  category.label
1    CCCCC1CCN(CCCN2C(=O)COc3cc(F)ccc32)CC1       Fulfilled
2      Clc1ccc2c(c1)N=C(N1CCNCC1)c1ccccc1N2   Not fulfilled
3  CN1CCN(C2=Nc3ccccc3Oc3ccc(Cl)cc32)CC1.O=C(O)CCC(=O)O       Fulfilled
4                     O=C1CCCN1CC#CCN1CCCC1       Fulfilled

Now look at this one.
Q: % Eff strictly < 200% for this compound? CCCCC1CCN(CCCC(=O)c2ccccc2C)CC1
Ans: Fulfilled
